Values compiled from PubChem BioAssay (NCI).

ASSAY REMARKS: NCI Yeast Anticancer Drug Screen. Data for the mlh1 rad18 strain (AID 175)
CONDITIONS USED: S. cerevisiae mlh1 rad18 strain growth inhibition; at 5.0 µM (retest, dose inferred, filed as 0.5)
Compounds without any hit were thinned out: in the full panel of roughly 79,000, 15% have a hit. The source made the active and inactive calls. Rule as the data show it: active = growth inhibition above about 70%; inactive = the rest.
Assign a class; possible classes are T = active, F = inactive

Which outcome was assigned to Cc1ccc(N=P(c2ccccc2)(c2ccccc2)c2ccccc2)cc1.[Br][Hg][Br] in this test?
T

Write down the call the test reported for this molecule. Item: CC1=C2C(=CC(C)(C)[C@@H]2O)C(=O)[C@](C)(O)C12CC2
F

How was C=NCC#N classified in this test?
F

Which result was noted for this molecule in the test: C[C@@H]1C[C@H]2CC[C@H](O2)[C@H](C)C(=O)O[C@@H](C)C[C@@H]2CC[C@@H](O2)[C@@H](C)C(=O)O[C@H](C)C[C@H]2CC[C@H](O2)[C@H](C)C(=O)O[C@@H](C)C[C@@H]2CC[C@@H](O2)[C@@H](C)C(=O)O1
T
